Data origin, for the record: ChEMBL document CHEMBL4689842

Test system: HEK-293T
ASSAY REMARKS: Multiplex assay against HEK293T
Type: toxicity, cell-based
EXPERIMENTAL PARAMETERS: human, 12 h, 1 µM, compound concentration 1 uM, replicate 2
In this section, each of the molecules is paired with its reported Population Pyknosed Nuclei (%).
VALUE KIND: Population Pyknosed Nuclei (%)

• COc1cc(N2CCC(N(C)C)CC2)ccc1Nc1ncc(Cl)c(Nc2ccccc2P(C)(C)=O)n1 = 6
• COc1cc2c(NC3CCN(C(C)C)CC3)nc(N3CCC(F)(F)CC3)nc2cc1OCCCN1CCCC1 = 51
• CCC(=O)O[C@]1(C(=O)SCF)[C@H](C)C[C@H]2[C@@H]3C[C@H](F)C4=CC(=O)C=C[C@]4(C)[C@@]3(F)[C@@H](O)C[C@@]21C [FLUTICASONE PROPIONATE] = 48
• Cc1cc2c(cc1N1C(=O)c3cccc4c(CCCO)ccc(c34)C1=O)n(C)c(=O)n2C = 44
• CCn1c(-c2nonc2N)nc2cnc(Oc3cccc(NC(=O)c4ccc(OCCN5CCOCC5)cc4)c3)cc21 [GSK-269962A] = 46
• Cc1cn(-c2cc(NC(=O)c3ccc4c(c3)CN(c3cncnc3)C[C@@H]4C)cc(C(F)(F)F)c2)cn1 = 5
• CC(=O)c1cc(-c2cc(C(=O)NC3CC3)ccc2C)c2ncccn12 = 49
• c1ccc2oc(-c3csc(C4CCN(Cc5nc6ncccc6[nH]5)CC4)n3)cc2c1 = 11
• CCc1cc2c(cc1CC)CC(NC[C@H](O)c1ccc(O)c3[nH]c(=O)ccc13)C2 = 55
• N#Cc1cnc(Nc2cc(NC[C@H]3CNCCO3)c(C(F)(F)F)cn2)cn1 = 3
• CN(C)C/C=C/C(=O)Nc1cc2c(Nc3ccc(F)c(Cl)c3)ncnc2cc1O[C@H]1CCOC1.O=C(O)/C=C\C(=O)O.O=C(O)/C=C\C(=O)O [AFATINIB DIMALEATE] = 5
• CCOc1cc(N2CCC(O)CC2)ccc1Nc1ncc2c(n1)N(C1CCCC1)CCC(=O)N2C = 5
• CNc1oc(-c2cccc3ccccc23)nc1C#N = 29
• Cl.Cl.NC1(c2ccc(-c3nc4ccn5c(=O)[nH]nc5c4cc3-c3ccccc3)cc2)CCC1 = 6
• O=C(O)c1ccc2cc(-c3ccc(O)c(C45CC6CC(CC(C6)C4)C5)c3)ccc2c1 = 40
• Nc1ccc(C(=O)Nc2cccc(-c3nc(N4CCOCC4)c4oc5ncccc5c4n3)c2)cn1 = 81
• CNC(=O)c1cc(Oc2ccc(NC(=O)Nc3cc(C(C)(C)C)nn3-c3ccc4ncccc4c3)c(F)c2)ccn1 = 3
• Cl.Cl.Nc1ncnc2c1c(-c1cccc(OCc3ccccc3)c1)cn2[C@H]1C[C@@H](CN2CCC2)C1 = 71

---

Consider the following compounds and their measured Total Cell Count readings.
Tested on: Fibroblast
ASSAY REMARKS: Multiplex assay against human fibroblast
Type: toxicity, cell-based
EXPERIMENTAL PARAMETERS: 24 h, 1 µM, compound concentration 1 uM, replicate 2
VALUE KIND: Total Cell Count

• CCn1c(-c2nonc2N)nc2cnc(Oc3cccc(NC(=O)c4ccc(OCCN5CCOCC5)cc4)c3)cc21 [GSK-269962A] = 59
• Cl.Cl.Nc1ncnc2c1c(-c1cccc(OCc3ccccc3)c1)cn2[C@H]1C[C@@H](CN2CCC2)C1 = 50
• CCOc1cc2ncc(C#N)c(Nc3ccc(OCc4cccc(F)c4)c(Cl)c3)c2cc1NC(=O)/C=C/CN(C)C [HKI-357] = 97
• c1ccc2oc(-c3csc(C4CCN(Cc5nc6ncccc6[nH]5)CC4)n3)cc2c1 = 92
• COc1cc(N2CCC(N(C)C)CC2)ccc1Nc1ncc(Cl)c(Nc2ccccc2P(C)(C)=O)n1 = 58
• CCCn1c(=O)c2[nH]c(C34CC5CC(CC3C5)C4)nc2n(CCC)c1=O [ROLOFYLLINE] = 83
• CCOc1cc(N2CCC(O)CC2)ccc1Nc1ncc2c(n1)N(C1CCCC1)CCC(=O)N2C = 71
• CNC(=O)c1nn(C)c2c1C(C)(C)Cc1cnc(Nc3ccc(N4CCN(C)CC4)cc3)nc1-2 [MILCICLIB] = 90
